In what follows, each item is paired with its pKi for UniProt:P00918.
pKi: −log10 of the molar value.
observable: pKi

[P] COc1ccc(S(=O)(=O)NC(C)C(=O)NO)cc1 (stereo unspecified)
[Q] Cc1ccc(S(=O)(=O)NO)cc1
[R] CC(C)CC(NS(=O)(=O)C(F)(F)C(F)(F)C(F)(F)C(F)(F)F)C(=O)NO (stereo unspecified)
[S] COc1ccc(S(=O)(=O)N(CC(=O)NO)Cc2ccccc2[N+](=O)[O-])cc1
[T] O=S(=O)(NO)c1c(F)c(F)c(F)c(F)c1F
Hey, quick one: sort these by pKi, largest value first please. Write the labels, ordered according to the request.
T, R, P, Q, S

---

Biological target: Carbonic anhydrase 2 (Homo sapiens)
observable: Ki (nM)

Fill in the blank: the reported Ki of `Nc1ccc(S(=O)(=O)NO)cc1` is ____.
37

[A] CC(C)C(C(=O)NO)N(Cc1ccccc1)S(=O)(=O)c1c(F)c(F)c(F)c(F)c1F (stereo not drawn)
[B] COc1ccc(S(=O)(=O)NC(CC(C)C)C(=O)NO)cc1 (stereo not drawn)
// task: argmin of Ki over [ A , B ] Pick one and reply with its label.
B

---

Biological target: Carbonic anhydrase 4 (Bos taurus)
Sequence (Q95323 whole entry): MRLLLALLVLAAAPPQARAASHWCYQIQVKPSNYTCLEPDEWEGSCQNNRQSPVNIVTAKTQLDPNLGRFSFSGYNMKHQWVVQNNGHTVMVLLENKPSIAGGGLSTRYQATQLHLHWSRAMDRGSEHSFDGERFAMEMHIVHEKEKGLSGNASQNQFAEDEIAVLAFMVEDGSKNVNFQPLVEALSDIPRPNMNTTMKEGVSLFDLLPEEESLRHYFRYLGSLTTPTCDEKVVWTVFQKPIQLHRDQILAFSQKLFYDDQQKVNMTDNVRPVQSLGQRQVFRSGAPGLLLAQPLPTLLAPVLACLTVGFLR
observable: Ki (nM)

Report Ki for `O=S(=O)(NO)C(F)(F)C(F)(F)C(F)(F)C(F)(F)F` please.
27

Would you mind telling me what Ki value was observed for `COc1ccc(S(=O)(=O)N(CC(=O)NO)Cc2ccccc2)cc1` ?
145

Which Ki is reported for this molecule? CC(NS(=O)(=O)C(F)(F)C(F)(F)C(F)(F)C(F)(F)F)C(=O)NO (configuration not stated)
17

Form field: reported Ki of CC(C)C(C(=O)NO)N(Cc1ccccc1)S(=O)(=O)c1c(F)c(F)c(F)c(F)c1F (configuration not stated)
48

Any idea what Ki was measured for `O=S(=O)(NO)c1ccc(Br)cc1` ?
39

[P] COc1ccc(S(=O)(=O)N(Cc2ccccc2)C(C)C(=O)NO)cc1 (configuration not stated)
[Q] O=S(=O)(NO)c1cccc(C(F)(F)F)c1
// select label with min value of measured Ki from [ P , Q ] Mark your answer with the label of the selected entry.
Q

---

Molecular target: Carbonic anhydrase 4 (Bos taurus)
observable: Ki

Fill in the recorded Ki for this molecule, with Carbonic anhydrase 4 (Bos taurus) as test system: CC(C(=O)NO)N(Cc1ccccc1[N+](=O)[O-])S(=O)(=O)c1c(F)c(F)c(F)c(F)c1F (stereo not given)
> 200 nM

More entries:
// fetch Carbonic anhydrase 4 (Bos taurus) Ki for CC(C(=O)NO)N(Cc1ccccc1Cl)S(=O)(=O)c1c(F)c(F)c(F)c(F)c1F (stereo not given)
> 200 nM

Missing value: Ki, Carbonic anhydrase 4 (Bos taurus), entry `O=C(CN(Cc1ccccc1)S(=O)(=O)C(F)(F)C(F)(F)C(F)(F)C(F)(F)F)NO` . Fill in?
100 nM

Request - read-out Ki | tested on Carbonic anhydrase 4 (Bos taurus) | molecule CC(C(=O)NO)N(Cc1ccccc1[N+](=O)[O-])S(=O)(=O)C(F)(F)C(F)(F)C(F)(F)C(F)(F)F (stereo not given)
> 200 nM

Give Carbonic anhydrase 4 (Bos taurus) Ki for CC(C(=O)NO)N(Cc1ccc([N+](=O)[O-])cc1)S(=O)(=O)c1c(F)c(F)c(F)c(F)c1F (stereo not given)
> 200 nM
